- measuredTarget: Aβ42 (Homo sapiens, UniProt P05067)
- Sequence (P05067 672-713): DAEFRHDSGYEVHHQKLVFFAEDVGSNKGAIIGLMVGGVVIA
- experimentNotes: Th-T (thioflavin-T) assay of Aβ42 aggregation
- Format: biochemical
- conditionsUsed: time-course reading M99; Supplementary Fig. 47 source data
# Th-T fluorescence, mean of three wells >= 3 gives MET, anything below gives NOT MET

compound: C=C1CCC2C(C)(CCC=C(C)C)C(O)CCC2(C)C1Cc1c(O)c(C)c(C)oc1=O (stereo not shown) [Compound 9, higginsianin B]
category: NOT MET

compound: C=C1CCC2C(C)(CCC=C(C)C)C(O)CCC2(C)C1Cc1c(OC)oc(C)c(C(=O)OC)c1=O (stereo not shown)
category: NOT MET

compound: C=C1CC[C@@H]2[C@](C)(CC[C@H]3O[C@H](C=C(C)C)C[C@@]23C)[C@@H]1Cc1c(OC)oc(CO)c(C)c1=O
category: MET

compound: C=C1CCC2C(C)(CCC=C(C)C)C(O)CCC2(C)C1Cc1c(OC)oc(C)c(C)c1=O (stereo not shown) [Compound 15, viridoxin A hydrolysate]
category: MET

compound: C=C1CC[C@H]2[C@]3(C)C[C@H](C=C(C)C)O[C@H]3CC[C@]2(C)[C@@H]1Cc1c(O)c(C)c(C)oc1=O
category: MET

compound: C=C1CCC2C(C)(CC(=O)C=C(C)C)C(O)CCC2(C)C1Cc1c(O)c(C)c(C)oc1=O (stereo not shown)
category: MET

compound: C=C1CC[C@H]2[C@]3(C)C[C@@H](C=C(C)C)O[C@H]3CC[C@]2(C)[C@@H]1Cc1c(OC)oc(CO)c(C)c1=O
category: MET

* * *

- measuredTarget: Aβ42 (Homo sapiens, UniProt P05067)
- experimentNotes: Th-T (thioflavin-T) assay of Aβ42 aggregation
- Format: biochemical
- conditionsUsed: reading M128; compound at 10 (head suffix _10)
Th-T fluorescence, mean of three wells (Fig. 7a) by entry:
measuredProperty: Th-T fluorescence, mean of three wells (Fig. 7a)

compound: C=C1CCC2C(C)(CCC=C(C)C)C(O)CCC2(C)C1Cc1c(OC)oc(CO)c(C)c1=O (centres unmarked) [Compound 12]
measuredTarget: Aβ42 (Homo sapiens, UniProt P05067)
numericReadout: 2.428

compound: C=C1CC[C@@H]2[C@](C)(CC[C@H]3O[C@H](C=C(C)C)C[C@@]23C)[C@@H]1Cc1c(OC)oc(CO)c(C)c1=O [Compound 20]
measuredTarget: Aβ42 (Homo sapiens, UniProt P05067)
numericReadout: 3.198

compound: C=C1CCC2C(C)(CCC=C(C)C)C(O)CCC2(C)C1Cc1c(OC)oc(CO)c(C(=O)OC)c1=O (centres unmarked) [Compound 13]
measuredTarget: Aβ42 (Homo sapiens, UniProt P05067)
numericReadout: 1.55

compound: C=C1CCC2C(C)(CCC=C(C)C)C(O)CCC2(C)C1Cc1c(OC)oc(C)c(C(=O)OC)c1=O (centres unmarked) [Compound 14]
measuredTarget: Aβ42 (Homo sapiens, UniProt P05067)
numericReadout: 2.916

compound: C=C1CC[C@@H]2[C@](C)(CC[C@H]3O[C@H](C=C(C)C)C[C@@]23C)[C@@H]1Cc1c(OC)oc(CO)c(C(=O)OC)c1=O [Compound 21]
measuredTarget: Aβ42 (Homo sapiens, UniProt P05067)
numericReadout: 1.676

* * *

- measuredTarget: UniProt:P05067
- experimentNotes: Th-T (thioflavin-T) assay of Aβ42 aggregation
- Assay type: biochemical
- conditionsUsed: column suffix _10; reading M105
# Fig. 7a Th-T reading, mean of three wells >= 3 gives yes (1), anything below gives no (0)

molecule: C=C1CC[C@@H]2[C@](C)(CC[C@H]3O[C@H](C=C(C)C)C[C@@]23C)[C@@H]1Cc1c(OC)oc(CO)c(C(=O)OC)c1=O
category: no (0)
--
molecule: C=C1CCC2C(C)(CCC=C(C)C)C(O)CCC2(C)C1Cc1c(OC)oc(CO)c(C)c1=O (centres unmarked)
category: no (0)
--
molecule: C=C1CCC2C(C)(CCC=C(C)C)C(O)CCC2(C)C1Cc1c(OC)oc(C)c(C(=O)OC)c1=O (centres unmarked)
category: no (0)
--
molecule: C=C1CCC2C(C)(CCC=C(C)C)C(O)CCC2(C)C1Cc1c(OC)oc(CO)c(C(=O)OC)c1=O (centres unmarked)
category: no (0)
--
molecule: C=C1CC[C@@H]2[C@](C)(CC[C@H]3O[C@H](C=C(C)C)C[C@@]23C)[C@@H]1Cc1c(OC)oc(CO)c(C)c1=O
category: yes (1)

* * *

- experimentNotes: cytotoxicity in Drosophila l(2)mbn cells
- Format: cell-based
- conditionsUsed: Drosophila, l(2)mbn cells (larval blood cell-derived), 20 µM, replicate 1, relative to DMSO 1%, read-out: % viability, viability 1
Consider the reported viability at 20 µM of an entry and match it to a band in class 1: < 7%; class 2: ≥ 7% and < 9%; class 3: ≥ 9%

compound: C=C1CCC2C(C)(CC(=O)C=C(C)C)C(O)CCC2(C)C1Cc1c(OC)oc(C)c(C)c1=O (stereo not drawn)
category: class 3
//
compound: C=C1CCC2C(C)(CCC=C(C)C)C(O)CCC2(C)C1Cc1c(OC)oc(C)c(C(=O)OC)c1=O (stereo not drawn)
category: class 2
//
compound: C=C1CC[C@@H]2[C@](C)(CC[C@H]3O[C@H](C=C(C)C)C[C@@]23C)[C@@H]1Cc1c(O)c(C)c(C)oc1=O
category: class 1
//
compound: C=C1CC[C@H]2[C@]3(C)C[C@@H](C=C(C)C)O[C@H]3CC[C@]2(C)[C@@H]1Cc1c(OC)oc(CO)c(C)c1=O
category: class 1
//
compound: C=C1CCC2C(C)(CCC=C(C)C)C(O)CCC2(C)C1Cc1c(OC)oc(CO)c(C)c1=O (stereo not drawn)
category: class 2
//
compound: C=C1CC[C@@H]2[C@](C)(CC[C@H]3O[C@H](C=C(C)C)C[C@@]23C)[C@@H]1Cc1c(OC)oc(CO)c(C)c1=O
category: class 1
//
compound: C=C1CCC2C(C)(CCC=C(C)C)C(=O)CCC2(C)C1Cc1c(O)c(C)c(C)oc1=O (stereo not drawn)
category: class 1
//
compound: C=C1CC[C@H]2[C@]3(C)C[C@@H](C=C(C)C)O[C@H]3CC[C@]2(C)[C@@H]1Cc1c(O)c(C)c(C)oc1=O
category: class 2
//
compound: C=C1CCC2C(C)(CC(=O)C=C(C)C)C(O)CCC2(C)C1Cc1c(OC)oc(CO)c(C)c1=O (stereo not drawn)
category: class 3
//
compound: C=C1CCC2C(C)(CC(=O)C=C(C)C)C(O)CCC2(C)C1Cc1c(O)c(C)c(C)oc1=O (stereo not drawn)
category: class 3
//
compound: C=C1CCC2C(C)(CCC=C(C)C)C(O)CCC2(C)C1Cc1c(OC)oc(CO)c(C(=O)OC)c1=O (stereo not drawn)
category: class 3
//
compound: C=C1CC[C@H]2[C@]3(C)C[C@H](C=C(C)C)O[C@H]3CC[C@]2(C)[C@@H]1Cc1c(OC)oc(C)c(C)c1=O
category: class 1
//
compound: C=C1CC[C@H]2[C@]3(C)C[C@H](C=C(C)C)O[C@H]3CC[C@]2(C)[C@@H]1Cc1c(O)c(C)c(C)oc1=O
category: class 2

* * *

- measuredTarget: UniProtKB P05067
- experimentNotes: Th-T (thioflavin-T) assay of Aβ42 aggregation
- Type: biochemical
- conditionsUsed: Supplementary Fig. 47; reading M140
Th-T fluorescence, mean of three wells by entry:
measuredProperty: Th-T fluorescence, mean of three wells

compound: C=C1CC[C@H]2[C@]3(C)C[C@@H](C=C(C)C)O[C@H]3CC[C@]2(C)[C@@H]1Cc1c(O)c(C)c(C)oc1=O
measuredProperty: Th-T fluorescence, mean of three wells
numericReadout: 2.665

compound: C=C1CCC2C(C)(CCC=C(C)C)C(O)CCC2(C)C1Cc1c(OC)oc(C)c(C)c1=O (stereo not drawn) [Compound 15, viridoxin A hydrolysate]
measuredProperty: Th-T fluorescence, mean of three wells
numericReadout: 3.356

compound: C=C1CCC2C(C)(CCC=C(C)C)C(O)CCC2(C)C1Cc1c(O)c(C)c(C)oc1=O (stereo not drawn) [Compound 9, higginsianin B]
measuredProperty: Th-T fluorescence, mean of three wells
numericReadout: 2.777

compound: C=C1CC[C@H]2[C@]3(C)C[C@H](C=C(C)C)O[C@H]3CC[C@]2(C)[C@@H]1Cc1c(O)c(C)c(C)oc1=O
measuredProperty: Th-T fluorescence, mean of three wells
numericReadout: 3.0121

compound: C=C1CCC2C3(C)CC(C=C(C)C)OC3CCC2(C)C1Cc1c(OC)oc(C)c(C)c1=O (stereo not drawn)
measuredProperty: Th-T fluorescence, mean of three wells
numericReadout: 3.756

compound: C=C1CCC2C(C)(CC(=O)C=C(C)C)C(O)CCC2(C)C1Cc1c(OC)oc(CO)c(C)c1=O (stereo not drawn)
measuredProperty: Th-T fluorescence, mean of three wells
numericReadout: 3.5958
